So I've got a bunch of compounds here, and I need their GI50 values.
system: CCRF-CEM; test: NCI tumour cell line growth inhibition, 48 h
Activity calls are given as the source filed them. Rule as the data show it: active = GI50 up to about 1.1 µM and inactive = higher.

Please give the measured GI50 for this compound: N=C(Cc1ccccc1)NCC(=O)O
> 100 µM (inactive)

Please give the measured GI50 for this compound: COc1ccc2cc(/C=N/NC(=O)Nc3ccccc3)ccc2c1
> 100 µM (inactive)

Please give the measured GI50 for this compound: COC(=O)CC1(CNC(=O)OCc2ccccc2)OCCO1
> 100 µM (inactive)

Please give the measured GI50 for this compound: C/C(CC(=O)Nc1ccc([N+](=O)[O-])cc1)=N/N=C(N)N
> 100 µM (inactive)

Please give the measured GI50 for this compound: CN1COc2c(n(C)c(=O)[nH]c2=O)C1
> 61.7 µM (inactive)

Please give the measured GI50 for this compound: N#Cc1c(O)c(/N=N/c2ccccc2F)c(=O)n2c1[nH]c1ccccc12
36.8 µM (inactive)

Please give the measured GI50 for this compound: Cc1cc(NC(=O)NC(=O)c2ccccc2NC(=O)CN(C)C)ccc1Oc1ncc(Br)cn1
2.26 µM (inactive)

Please give the measured GI50 for this compound: CC/C(Cl)=N\OC(=O)Nc1ccccc1OC(F)(F)F
1.75 µM (inactive)

Please give the measured GI50 for this compound: CC(C)(CN1C(=O)C(Cl)=C(Cl)C1=O)CN1C(=O)C(Cl)=C(Cl)C1=O
0.264 µM (active)

Please give the measured GI50 for this compound: Cc1ccc(-c2n[nH]c(=O)n2/N=C\c2ccccc2O)cc1
> 100 µM (inactive)

Please give the measured GI50 for this compound: COC(=O)[C@@H]1Cc2c([nH]c3ccccc23)[C@H](c2ccccc2)N1
37.3 µM (inactive)

* * *

test system: CAKI-1; assay: NCI tumour cell line growth inhibition, 48 h
Activity calls are given as the source filed them. No stated cut-off is given here; in the data, active = GI50 up to about 1.1 µM and inactive = higher.
readout-name: GI50

Please give the measured GI50 for this molecule: O=C(c1ccccc1)C1C(C(=O)c2ccccc2)C(c2ccccc2)N(c2ccccc2)C1c1ccccc1 (stereo unspecified)
> 100 µM (inactive)

Please give the measured GI50 for this molecule: O=c1c(Cl)c(Cl)cnn1CCCl
2.27 µM (inactive)

Please give the measured GI50 for this molecule: CC1(C)Oc2ccc3c(=O)c(-c4ccccc4)c(-c4ccccc4)oc3c2C1C(=O)O (stereo unspecified)
> 100 µM (inactive)

Please give the measured GI50 for this molecule: CC(C)c1cc(C(F)(F)F)nc(NNc2nc(C(C)C)cc(C(F)(F)F)n2)n1
64.7 µM (inactive)

Please give the measured GI50 for this molecule: COC(=O)C1CCC(=S)N1C(=O)c1ccccc1 (stereo unspecified)
> 100 µM (inactive)

Please give the measured GI50 for this molecule: Cc1cc(C)nc(SCCc2cccc[n+]2C)n1
> 100 µM (inactive)

* * *

test system: OVCAR-4; assay: NCI tumour cell line growth inhibition, 48 h
Calls of active or inactive are those of the source. No stated cut-off is given here; in the data, active = GI50 up to about 1.1 µM and inactive = higher.
In this exercise, the only acceptable responses are class 1 = active, class 0 = inactive

Which outcome did this test record for the molecule Cc1ccccc1NC(=O)Cc1csc2[n+]1C(=O)/C(=C/c1ccc([N+](=O)[O-])cc1)S2 ?
class 0

Which outcome did this test record for the molecule COc1ccc(C2CC(c3c(O)ccc4ccccc34)=NN2C(C)=O)cc1OC (configuration not stated) ?
class 0

Which outcome did this test record for the molecule Nc1ncn([C@@H]2C=C(CO)C(O)C2O)c(=O)n1 (some centres not stated) ?
class 0

Which outcome did this test record for the molecule C=CCn1c(=O)c(-c2ccccc2)c(O)c2ccccc21 ?
class 0

Which outcome did this test record for the molecule CN(NC(=O)/C(=C/c1ccc(O)cc1)NC(=O)c1ccccc1)c1ccnc2cc(Cl)ccc12 ?
class 0

Which outcome did this test record for the molecule C=CCCC1CCCNC1=S (configuration not stated) ?
class 0

Which outcome did this test record for the molecule CCCCN1C(=O)C[C@H]2[C@@H]3CCc4cc(OCCN5CCCC5)ccc4[C@H]3CC[C@]2(C)C1=O ?
class 0

Which outcome did this test record for the molecule CCCC(=O)Nc1cc(/C=C/C(=O)N2CC(CCl)c3c2cc(OCc2ccccc2)c2[nH]cc(C)c32)n(C)c1 (configuration not stated) ?
class 1

Which outcome did this test record for the molecule CC1C[C@]2(C[C@@H](C)C(=O)O2)O[C@@H]2CC3(C)[C@@H]4CCC5C(C)(C)OC(=O)C[C@H]6OO[C@]4(CC[C@]3(C)C12)CC56O (some centres not stated) ?
class 0

Which outcome did this test record for the molecule C[C@@H]1O[C@@H](O[C@H]2CC[C@]3(C=O)[C@H]4CC[C@]5(C)[C@@H](c6ccc(=O)oc6)CC[C@]5(O)[C@@H]4CC[C@]3(O)C2)[C@H](O)[C@H](O)[C@H]1O[C@@H]1O[C@H](CO)[C@@H](O)[C@H](O)[C@H]1O [HELLEBRIN] ?
class 1

Which outcome did this test record for the molecule Cc1cc(N)ccc1/N=N\c1ccc(S(=O)(=O)CCOS(=O)(=O)O)cc1 ?
class 0

Which outcome did this test record for the molecule CO/N=C1\CC(C)N2C(=O)C(C(C)C)NC(=O)C(NC(=O)c3c4nc5c(C(=O)NC6C(=O)NC(C(C)C)C(=O)N7C(C)CC(O)C7C(=O)N(C)CC(=O)N(C)C(C(C)C)C(=O)OC6C)ccc(C)c5oc-4c(C)c(=O)c3N)C(CO)OC(=O)C(C)N(C)C(=O)CN(C)C(=O)C12 (configuration not stated) ?
class 0

Which outcome did this test record for the molecule Cn1cco/c1=N/c1ccc(Cl)c(Cl)c1 ?
class 0

Which outcome did this test record for the molecule C=C1C(=O)C23CC1C[C@H](OC(C)=O)[C@H]2C1(C)C(OC(C)=O)C[C@H](O)C(C)(C)[C@H]1C(=O)[C@@H]3OC(C)=O (some centres not stated) ?
class 0

Which outcome did this test record for the molecule CN1C(=O)C(=CNc2ccc(Cl)cc2Cl)C(=O)N(C)C1=O ?
class 0

Which outcome did this test record for the molecule CCCc1ccc(/N=C\c2cc(OC)c(OC)c(OC)c2)cc1 ?
class 0

Which outcome did this test record for the molecule N#C/C(=N/Nc1[nH]cnc1C(N)=O)C(=O)Nc1ccccc1 ?
class 0

Which outcome did this test record for the molecule COc1ccc2c3c([nH]c2c1CC=C(C)C)C(=O)C=C(C)C3=O ?
class 0

Which outcome did this test record for the molecule N=C(Cc1ccccc1)NCC(=O)O ?
class 0

Which outcome did this test record for the molecule NNC(=O)Nc1nc2ccc(NN)cc2[nH]1 ?
class 0

Which outcome did this test record for the molecule O=C(CC(C(=O)c1ccsc1)c1ccsc1)c1ccsc1 (configuration not stated) ?
class 0

Which outcome did this test record for the molecule COc1cc(/C=C2\CCC(C)c3c2nc(N)c(C#N)c3-c2cc(OC)c(OC)c(OC)c2)cc(OC)c1OC (configuration not stated) ?
class 0

Which outcome did this test record for the molecule CCOC(=O)C(Cc1cc(OC)c(CC(C(=O)OCC)C(=O)OCC)cc1OC)C(=O)OCC ?
class 0

Which outcome did this test record for the molecule Brc1ccc(/C(N=N/C(=N\Sc2ccccc2)c2ccc(Br)cc2)=N/Sc2ccccc2)cc1 ?
class 0

Which outcome did this test record for the molecule COc1ccc(/C=C2\C(=O)N(C(=O)Cc3ccccc3)N=C2C)cc1OC ?
class 0

Which outcome did this test record for the molecule Nc1c([N+](=O)[O-])nc(Cl)c2nncn12 ?
class 0

Which outcome did this test record for the molecule COC(=O)C1CCC(=S)N1C(=O)c1ccccc1 (configuration not stated) ?
class 0

Which outcome did this test record for the molecule CCCOc1cc2c(cc1O)CC[C@@H]1[C@@H]2CC[C@]2(C)[C@@H](O)CC[C@@H]12 ?
class 0

Which outcome did this test record for the molecule N#CCCN(c1ccc(-c2nnc(NC(=O)CNNC(=O)CC(=O)Nc3ccccc3)s2)cc1)S(=O)(=O)c1ccccc1 ?
class 0

Which outcome did this test record for the molecule COc1ccc(C23C(=O)c4ccccc4N2O[C@H]2C(=O)N(c4ccccc4)C(=O)[C@H]23)cc1 (some centres not stated) ?
class 0

Which outcome did this test record for the molecule COc1cc(OC)cc(-n2c(N)c(-c3nc4ccccc4n3C)c3ccc([N+](=O)[O-])cc3c2=O)c1 ?
class 0

Which outcome did this test record for the molecule CN(C(=O)Cc1ccccc1)n1cnn(CC(=O)OC(C)(C)C)c1=S ?
class 0

Which outcome did this test record for the molecule CC(=O)/C(=N\O)C(=O)NCCc1ccccc1 ?
class 0

Which outcome did this test record for the molecule CCCCCCCCCCCCCC[S+](C)C ?
class 0

Which outcome did this test record for the molecule Cc1ccc(-c2n[nH]c(=O)n2/N=C\c2ccccc2O)cc1 ?
class 0

Which outcome did this test record for the molecule O=C(CCC(=O)Nc1ccccc1C(F)(F)F)N/N=C1\C(=N\NC(=O)CCC(=O)Nc2ccccc2C(F)(F)F)C(c2ccc3c(c2)OCO3)Oc2ccccc21 (configuration not stated) ?
class 0

Which outcome did this test record for the molecule CCCCCCCCNC(=O)SCCCC ?
class 0

* * *

test system: SNB-78; assay: NCI tumour cell line growth inhibition, 48 h
Calls of active or inactive are those of the source. Rule as the data show it: active = GI50 up to about 1.1 µM and inactive = higher.
readout-name: GI50

Requested read-out GI50, target or system SNB-78, entry CCCCCC/C(CC(=O)CCC(=O)NCCc1ccccc1)=N\NC(=O)c1ccc2ccccc2c1O
67.3 µM (inactive)

Requested read-out GI50, target or system SNB-78, entry Cc1cc(Br)cc(C)c1NC(=O)C(=O)C(C(=O)c1ccc2ccccc2c1)C1OC(=O)c2ccccc21 (stereo unspecified)
> 10 µM (inactive)

Requested read-out GI50, target or system SNB-78, entry O=C1OC(=O)c2c1c(-c1ccccc1)nc1ccccc21
> 100 µM (inactive)

Requested read-out GI50, target or system SNB-78, entry C=C1C(=O)C[C@@]23CCC[C@@]12CC(O)C3 (stereo partly specified)
28.2 µM (inactive)

Requested read-out GI50, target or system SNB-78, entry CC1=CCP(C(F)(F)F)P(C(F)(F)F)C1 (stereo unspecified)
> 100 µM (inactive)

Requested read-out GI50, target or system SNB-78, entry CS(=O)(=O)OCC1=C(COS(C)(=O)=O)C(=O)c2c(O)ccc(O)c2C1=O
> 100 µM (inactive)

Requested read-out GI50, target or system SNB-78, entry COc1ccc(O)cc1
> 100 µM (inactive)

Requested read-out GI50, target or system SNB-78, entry O=c1c(Cl)c(Cl)cnn1CCCl
11.8 µM (inactive)

Requested read-out GI50, target or system SNB-78, entry CC(=O)C1C(=O)C(=O)N(c2ccccc2C(C)C)C1=O (stereo unspecified)
> 100 µM (inactive)

Requested read-out GI50, target or system SNB-78, entry CC1=C(C(=O)Nc2ccccc2)C(c2ccc(Cl)c(Cl)c2)C(C(=O)Nc2ccccc2)=C(C)N1
17.7 µM (inactive)

Requested read-out GI50, target or system SNB-78, entry COC(=O)/C(C#N)=C1\CCC(OC)N1 (stereo unspecified)
> 100 µM (inactive)
